Data credit: the emibetuzumab library of Makowski et al. (2022)

B1: VH:VL chains; a variant is named by its letters at X, in order (parent)
chain 1: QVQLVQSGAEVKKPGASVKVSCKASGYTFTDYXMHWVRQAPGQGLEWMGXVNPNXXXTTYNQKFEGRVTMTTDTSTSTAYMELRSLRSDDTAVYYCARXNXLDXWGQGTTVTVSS
chain 2: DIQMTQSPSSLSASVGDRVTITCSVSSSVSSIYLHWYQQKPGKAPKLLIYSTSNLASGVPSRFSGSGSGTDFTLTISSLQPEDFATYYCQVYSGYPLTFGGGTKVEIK

- Variants of: B1
- EXPERIMENTAL DETAILS: yeast display scFab, FACS + sequencing
READOUT KIND: non-specific binding call

Example variants with recorded non-specific binding call:
INSERT INTO results (variant_notation, reported) VALUES
  ('YRGKAFGV', 'binds'),
  ('VGKGDDAA', 'no binding'),
  ('DTGRGSGV', 'no binding'),
  ('YRTRSSWD', 'binds'),
  ('YRARGSVS', 'binds'),
  ('YEGGADVF', 'no binding'),
  ('FKGEGDSA', 'no binding'),
  ('VKEKGDVA', 'no binding');

Sample DATRGAGY — what was its non-specific binding call?
no binding

Sample SKKEDSAD — what was its non-specific binding call?
no binding

Sample FAGGGDVY — what was its non-specific binding call?
no binding
